subject-of-test: Savinase® 16.0L (Lederbergia lenta)
Construct: purchased Sigma-Aldrich
assay-method-text: Protease storage stability in liquid formulations at 37° C. (Suc-AAPF-pNA assay)
Format: biochemical
condition-notes: base formulation II, 2.5 wt% compound, 0.7 wt% Savinase 16.0 L; 35 d
Counter-ions that a name gives are not always drawn.
For each record, check the reported protease activity in the course of time of storage at 37° C.: if it is below 80% write met, else write not met.

- CC(=O)OCC(COC(C)=O)OC(C)=O [B.4, glyceroltriacetate, reference compound]: met
- O=C(CC(O)(CC(=O)OCc1ccccc1)C(=O)OCc1ccccc1)OCc1ccccc1 [A.8, Tribenzylcitrate]: met
- CCOC(=O)CC(O)(CC(=O)O)C(=O)O (stereo not drawn) [A.6, Monoethylcitrate]: not met
- O=C(O)CC(O)(CC(=O)O)C(=O)O [B.2, citric acid trisodium salt, reference compound]: met

----------
subject-of-test: Savinase® 16.0L (Lederbergia lenta, UniProt P29600)
Construct: purchased Sigma-Aldrich
assay-method-text: Protease storage stability in liquid formulations at 37° C. (Suc-AAPF-pNA assay)
Assay type: biochemical
condition-notes: base formulation I, 2.5 wt% compound, 0.7 wt% Savinase 16.0 L; 28 d
recorded-endpoint: protease activity in the course of time of storage at 37° C. (%)

* CCOC(=O)CC(O)(CC(=O)OCC)C(=O)OCC [A.1, Triethylcitrate] | 79
* CCOC(=O)CC(CC(=O)OCC)(OC(C)=O)C(=O)OCC [A.5, Acetyltriethylcitrate] | 82
* CCCOC(=O)CC(O)(CC(=O)OCCC)C(=O)OCCC [A.2, Tripropylcitrate] | 80
* CC(=O)OCC(COC(C)=O)OC(C)=O [B.4, glyceroltriacetate, reference compound] | 61
* CCOC(=O)C(=O)OCC [B.3, diethyloxalate, reference compound] | 62
* O=C(O)CC(O)(CC(=O)O)C(=O)O [B.1, citric acid, reference compound] | 62
* CCCCOC(=O)CC(CC(=O)OCCCC)(OC(C)=O)C(=O)OCCCC [A.4, Acetyltributylcitrate] | 83

----------
subject-of-test: Savinase® 16.0L (Lederbergia lenta)
Construct: purchased Sigma-Aldrich
Sequence (P29600 1-269): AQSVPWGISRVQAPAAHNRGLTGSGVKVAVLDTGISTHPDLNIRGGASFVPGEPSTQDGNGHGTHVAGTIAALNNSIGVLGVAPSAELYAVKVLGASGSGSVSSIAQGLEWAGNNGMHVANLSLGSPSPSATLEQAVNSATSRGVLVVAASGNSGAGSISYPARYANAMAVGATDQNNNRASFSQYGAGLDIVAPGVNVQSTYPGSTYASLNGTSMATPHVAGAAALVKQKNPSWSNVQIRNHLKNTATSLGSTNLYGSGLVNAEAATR
assay-method-text: Protease storage stability in liquid formulations at 37° C. (Suc-AAPF-pNA assay)
Assay type: biochemical
condition-notes: base formulation III, 2.0 wt% compound, 0.7 wt% Savinase 16.0 L; 21 d
Measured protease activity in the course of time of storage at 37° C. by item
recorded-endpoint: protease activity in the course of time of storage at 37° C.

* CCOC(=O)C(=O)OCC [B.3, diethyloxalate, reference compound] | 60%
* CCCOC(=O)CC(O)(CC(=O)OCCC)C(=O)OCCC [A.2, Tripropylcitrate] | 91%
* CCOC(=O)CC(CC(=O)OCC)(OC(C)=O)C(=O)OCC [A.5, Acetyltriethylcitrate] | 86%
* CCOC(=O)CC(O)(CC(=O)O)C(=O)O (stereo not drawn) [A.6, Monoethylcitrate] | 82%
* CCOC(=O)CC(O)(CC(=O)OCC)C(=O)OCC [A.1, Triethylcitrate] | 87%
* O=C(O)CC(O)(CC(=O)O)C(=O)O [B.1, citric acid, reference compound] | 65%
